tested on: A549; test: relative viability (nuclei count vs DMSO), 5 days (fraction); higher = more cells survive; details: first compound 0.08 µM
Exercise: state measured relative viability for each of the molecules provided.
Numbers only.

# input Find the recorded relative viability belonging to C=C1C(=O)O[C@@H](CCCCCCCC)[C@@H]1C(=O)O [C-75] + N=C(N)NC(=N)NCCc1ccccc1 [Phenformin] (partner 250 µM) and report it.
# output 0.185

# input Find the recorded relative viability belonging to Oc1nc(-c2ccc(C(F)(F)F)cc2)nc2c1CSCC2 [XAV939] + CC1(C)CCC(c2ccc(Cl)cc2)=C(CN2CCN(c3ccc(C(=O)NS(=O)(=O)c4ccc(N[C@H](CCN5CCOCC5)CSc5ccccc5)c(S(=O)(=O)C(F)(F)F)c4)cc3)CC2)C1 [Navitoclax] (partner 0.5 µM) and report it.
# output 1.49

Below: the item to evaluate.
# input Find the recorded relative viability belonging to Oc1nc(-c2ccc(C(F)(F)F)cc2)nc2c1CSCC2 [XAV939] + CS(=O)(=O)CCNCc1ccc(-c2ccc3ncnc(Nc4ccc(OCc5cccc(F)c5)c(Cl)c4)c3c2)o1 [Lapatinib] (partner 2 µM) and report it.
# output 1.1

* * *

test system: NCI-H460; assay: relative viability (nuclei count vs DMSO), 5 days (fraction); higher = more cells survive; settings: first compound 0.005 µM
Exercise: state measured relative viability for each of the molecules provided.
Answers are plain numbers.

Worked cases, relative viability given:
# input Find the recorded relative viability belonging to CC1(C)CCC(c2ccc(Cl)cc2)=C(CN2CCN(c3ccc(C(=O)NS(=O)(=O)c4ccc(N[C@H](CCN5CCOCC5)CSc5ccccc5)c(S(=O)(=O)C(F)(F)F)c4)cc3)CC2)C1 [Navitoclax] + Cc1nc(Nc2ncc(C(=O)Nc3c(C)cccc3Cl)s2)cc(N2CCN(CCO)CC2)n1 [Dasatinib] (partner 0.075 µM) and report it.
# output 0.522

# input Find the recorded relative viability belonging to CC1(C)CCC(c2ccc(Cl)cc2)=C(CN2CCN(c3ccc(C(=O)NS(=O)(=O)c4ccc(N[C@H](CCN5CCOCC5)CSc5ccccc5)c(S(=O)(=O)C(F)(F)F)c4)cc3)CC2)C1 [Navitoclax] + Nc1ncn([C@H]2C[C@H](O)[C@@H](CO)O2)c(=O)n1 [Decitabine] (partner 2 µM) and report it.
# output 0.481

# input Find the recorded relative viability belonging to CC1(C)CCC(c2ccc(Cl)cc2)=C(CN2CCN(c3ccc(C(=O)NS(=O)(=O)c4ccc(N[C@H](CCN5CCOCC5)CSc5ccccc5)c(S(=O)(=O)C(F)(F)F)c4)cc3)CC2)C1 [Navitoclax] + O=C(CCCCCCC(=O)Nc1ccccc1)NO [Vorinostat] (partner 1 µM) and report it.
# output 0.614

Give one value of relative viability per listed molecule.
1. CC1(C)CCC(c2ccc(Cl)cc2)=C(CN2CCN(c3ccc(C(=O)NS(=O)(=O)c4ccc(N[C@H](CCN5CCOCC5)CSc5ccccc5)c(S(=O)(=O)C(F)(F)F)c4)cc3)CC2)C1 [Navitoclax] + O=C(c1cc(Cc2n[nH]c(=O)c3ccccc23)ccc1F)N1CCN(C(=O)C2CC2)CC1 [Olaparib] (partner 8 µM)
2. CC1(C)CCC(c2ccc(Cl)cc2)=C(CN2CCN(c3ccc(C(=O)NS(=O)(=O)c4ccc(N[C@H](CCN5CCOCC5)CSc5ccccc5)c(S(=O)(=O)C(F)(F)F)c4)cc3)CC2)C1 [Navitoclax] + NC(=O)Nc1cc(-c2cccc(F)c2)sc1C(=O)N[C@H]1CCCNC1 [AZD7762] (partner 0.2 µM)

# output
1. 0.424
2. 0.575
